system: HT29 colon; test: NCI tumour cell line growth inhibition, 48 h
Observable: GI50

// solved cases for GI50 follow
Molecule | Target | Observable | Result
CCc1c(Oc2ccc(C(C)=O)cc2)c2ccccc2[nH]c1=O | HT29 colon | GI50 | 26900 nM
COc1cc2c3c(n(C)c(=O)c2cc1OC)-c1cc2c(cc1/C3=C\CCCN1C(=O)c3ccccc3C1=O)OCO2 | HT29 colon | GI50 | > 40000 nM
CCOC(=O)/C=C(/C(=O)OCC)n1cc(Cl)c(=O)n(CC(=O)OCC)c1=O | HT29 colon | GI50 | 22500 nM
O=C1c2c(c3c4ccccc4n(CCCCCCBr)c3c3[nH]c4ccccc4c23)C(=O)N1O | HT29 colon | GI50 | 1730 nM
N#CSCC1CC(O)(c2ccccc2)C(c2ccccc2)C(c2ccc(Cl)cc2)O1 (stereo not drawn) | HT29 colon | GI50 | 1020 nM
Cc1ccc(CS/C(=C\c2ccc([N+](=O)[O-])cc2)C(=O)c2ccc(F)cc2)cc1 | HT29 colon | GI50 | 1780 nM

Query "N#Cc1ccc(C#Cc2ccccc2C#CCCCCO)cc1" yields GI50 of 46000 nM

Input "COc1cc(/C=C/c2cc(/C=C/c3ccc(O)c(OC)c3)n(-c3ccccc3)n2)ccc1O" . Output GI50: 724 nM

Entry source: PubChem BioAssay (NCI)
